Assign composite z-score to each entry below.
test system: Sonic hedgehog protein (Shh); experiment: small-molecule binders of Shh protein, primary screen, biochemical, small-molecule microarray, 635/667 nm fluorescence (AID 1151); details: small-molecule microarray binding, 635 nm fluorescence; higher = more signal;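 note: Shh protein binding to compounds spotted on small-molecule microarray slides; score combines spot fluorescence intensity with signal-to-noise across triplicate slides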
Kindly provide the number alone.

I would be grateful if you could share the reported composite z-score for Cc1cccc([C@H]2C[C@H]3C(I)=C[C@@H]2C(=O)[C@]32CO2)c1 .
0.0299

Quick one: composite z-score for O=C1C[C@@](C(=O)NCc2ccccc2)(c2ccc([N+](=O)[O-])cc2)[C@@H](c2ccc(CO)cc2I)N1CC12CC3CC(CC(C3)C1)C2 ?
2.06

Report composite z-score for O=C(CS)NCCCCCCNC(=O)[C@@H]1C[C@@H]2C(=O)NCC(=O)N2[C@@H]1c1ccc(O)cc1 please.
0.236

Query (molecule): C=CCN1C(=O)[C@]2(O[C@H](CCO)[C@@H]([Si](C)(C)c3ccc(OC)cc3)[C@@H]2C)c2cc(NC(=O)c3ccc(OC)cc3)ccc21 ; field requested: composite z-score
2.11

Entry CCCCC(=C=CC[C@H](O)c1ccc(OCCO)cc1)C[C@H](O)COCc1ccccc1 has what composite z-score?
0.571

Requested read-out: composite z-score. Entry: C=C(CCCC)C(=O)CC[C@@H](OC(=O)c1cccnc1)c1ccc(OCCO)cc1
2.35

Looking for the measured composite z-score of C=C(C)C1CCC(C(O)C2C=CC3C(=O)N(C)C(=O)C3N2Nc2cc(OC)c(OC)c(OC)c2)CC1 (stereo not drawn) , can you help?
1.11

I would be grateful if you could share the reported composite z-score for COCC1C2CC[C@H]3C(OCc4ccc(OC)cc4)OC[C@]4(C)[C@H]3C2=C(CN4C(=O)OC(C)(C)C)[C@H](C)C1COC (stereo partly drawn) .
0.298

====

target: Follistatin-related protein 3 (Homo sapiens) (UniProt O95633); experiment: FSTL3 binders on small-molecule microarrays, primary screen, biochemical, small-molecule microarray, 635 nm fluorescence (AID 1105); conditions: FSTL3 binding, higher = more signal;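 note: score merges emission near 667 nm and signal to noise per printed spot across three slides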
Sequence (O95633 whole entry, looked up): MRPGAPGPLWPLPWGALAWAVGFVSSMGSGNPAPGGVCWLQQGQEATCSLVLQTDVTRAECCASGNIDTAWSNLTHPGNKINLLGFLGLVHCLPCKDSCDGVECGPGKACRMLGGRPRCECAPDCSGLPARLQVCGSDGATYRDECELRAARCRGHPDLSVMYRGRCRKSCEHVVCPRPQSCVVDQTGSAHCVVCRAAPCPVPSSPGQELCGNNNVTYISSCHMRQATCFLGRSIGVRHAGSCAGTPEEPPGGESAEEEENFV
What composite z-score was measured for each of the following?
The answer should be a number; do not append a unit.

Any idea what composite z-score was measured for [N-]=[N+]=NCc1ccccc1[C@H]1OC(c2ccc(OCCCO)cc2)=N[C@@]1(Cc1ccccc1)C(=O)NCCN1CCOCC1 ?
1.07

So what's the measured composite z-score for this one? C=C(COC)/C(=C/C[C@@H](OC(=O)c1ccncc1)c1ccccc1OCCO)c1cc(C(=O)OC)ccc1OC
-0.354

Suppose we examine the molecule Nc1cc(Br)ccc1C(=O)O ; what composite z-score value has been reported?
0.111

Data request, read-out composite z-score, for CCCNC(=O)[C@@]1(Sc2ccc(C)cc2)CC(=O)N(C2CCCCC2)[C@@H]1c1ccc(CO)cc1I
0.192

Param item = CCCCC=C[C@@H](NC(=O)c1ccccc1)c1ccccc1 ; retrieve measured composite z-score.
0.79

# get_value(readout='composite z-score', item= C=C(CCCC)C(=O)CC[C@@H](OC(=O)c1cccnc1)c1ccc(OCCO)cc1 )
1.39

Need composite z-score, item CC(C)CNC(=O)[C@@]1(C)c2ccccc2C(=O)N(Cc2cc(C(F)(F)F)cc(C(F)(F)F)c2)[C@H]1c1ccc(CO)cc1
-0.522

Reported composite z-score for COc1cc(NN2C(C(O)c3ccc(I)cc3)C=CC3C(=O)N(c4ccccc4)C(=O)C32)cc(OC)c1OC (centres undefined) : what is it?
1.3

What measured composite z-score goes with COc1ccc(CCNC(=O)[C@@]2(Cc3ccccc3I)c3ccccc3C(=O)N(Cc3ccccc3Cl)[C@H]2c2ccc(CO)cc2)cc1 ?
-0.407
